# TESTED SYSTEM: T1, RHAU53 peptide (DHX36 fragment) (UniProt Q9H2U1)
# T1 chain: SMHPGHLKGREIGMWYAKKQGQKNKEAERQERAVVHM
# ASSAY: competition; EMSA vs 30 nM FAM_dG4_A, 100 nM RHAU53; EMSA and MST: 25 mM Tris-HCl pH 7.5, 150 mM KCl, 1 mM MgCl2, 37 C 30 min; 30 nM (EMSA) or 40 nM (MST) FAM-oligo; EMSA gel 10% native PAGE, 0.5x TBE, 4 C
# CONDITION DETAILS: G4
OBSERVED PROPERTY: IC50 (nM)
Give the quantity in nM, number only.

Ask: What does the data say about its IC50? Entry: GGGUUGCGGAGGGUGGGCCU (structured_RNA, 5'-hexynyl clicked to AHPC-PEG2) [rG4_A (unlabelled)]
Reply: 177

Where these numbers come from: paper PMC11780864
